molecular target: HIV protease (Human immunodeficiency virus type 1 group M subtype B); construct: HIV protease consists of 99 amino acids and is evidently split off by itself from the pol polyprotein; assay: Inhibition of HIV protease (cleavage of H-Ser-Phe-Asn-Phe-Opr-Gln-Ile-OH, HPLC); type: biochemical; conditions: inhibitor concentration at which the cleavage rate is halved; pH 6, 2 hours; read-out: IC50
pIC50: −log10 of the molar value. Structures can show the parent of a compound that is named as a salt.
Documented pIC50 across a set of compounds
measured quantity: pIC50

INSERT INTO assay_data (compound, measured_quantity, assay_result) VALUES
  ('CC(C)[C@H](NC(=O)[C@H](CCC(=O)OCc1ccccc1)NC(=O)OC(C)(C)C)C(=O)N[C@@H](Cc1ccccc1)[C@H](O)[C@@H](O)[C@H](Cc1ccccc1)NC(=O)[C@@H](NC(=O)[C@H](CCC(=O)OCc1ccccc1)NC(=O)OC(C)(C)C)C(C)C', 'pIC50', 6.96),
  ('CC(C)[C@H](N)C(=O)N[C@@H](Cc1ccccc1)[C@H](O)[C@@H](O)[C@H](Cc1ccccc1)NC(=O)[C@@H](N)C(C)C [Example 131, dihydrochloride]', 'pIC50', 4.40);

====

Listed here are molecules together with their documented IC50.
Biological target: HIV protease (Human immunodeficiency virus type 1 group M subtype B)
Construct: HIV protease consists of 99 amino acids and is evidently split off by itself from the pol polyprotein
Experiment: Inhibition of HIV protease (cleavage of H-Ser-Phe-Asn-Phe-Opr-Gln-Ile-OH, HPLC)
Format: biochemical
Conditions: inhibitor concentration at which the cleavage rate is halved; pH 6, 2 hours; read-out: IC50
Text: The compounds of the formula (I) according to the invention have enzyme-inhibiting properties. In particular, they inhibit the action of retroviral aspartyl proteases, such as that of HIV protease. Their enzyme-inhibitory action, which is in the milli- to subnanomolar range, can be determined as follows. The heptapeptide: H-Ser-Phe-Asn-Phe-Pro-Gln-Ile-OH (P. L. Darke et al., Biophys. Res. Commun. 156 (1988) 297-303), inter alia, has hitherto been used as the substrate of HIV protease. […]
measured quantity: IC50

INSERT INTO measurements (molecule, measured_quantity, assay_result) VALUES
  ('CC(C)[C@H](NC(=O)[C@H](CCS(C)(=O)=O)NC(=O)OC(C)(C)C)C(=O)N[C@@H](Cc1ccccc1)[C@@H](O)[C@H](O)[C@H](Cc1ccccc1)NC(=O)[C@@H](NC(=O)[C@H](CCS(C)(=O)=O)NC(=O)OC(C)(C)C)C(C)C', 'IC50', '0.0022 µM'),
  ('CC(C)[C@H](NC(=O)[C@@H]1Cc2ccccc2CN1C(=O)OCc1ccccc1)C(=O)N[C@@H](Cc1ccccc1)[C@@H](O)[C@H](O)[C@H](Cc1ccccc1)NC(=O)[C@@H](NC(=O)[C@@H]1Cc2ccccc2CN1C(=O)OCc1ccccc1)C(C)C', 'IC50', '10 µM'),
  ('CC(C)[C@H](NC(=O)[C@@H]1Cc2ccccc2CN1)C(=O)N[C@@H](Cc1ccccc1)[C@@H](O)[C@H](O)[C@H](Cc1ccccc1)NC(=O)[C@@H](NC(=O)[C@@H]1Cc2ccccc2CN1)C(C)C', 'IC50', '0.002 µM'),
  ('CC(C)[C@H](NC(=O)C(CNC(=O)OC(C)(C)C)Cc1ccccc1)C(=O)N[C@@H](Cc1ccccc1)[C@@H](O)[C@H](O)[C@H](Cc1ccccc1)NC(=O)[C@@H](NC(=O)C(CNC(=O)OC(C)(C)C)Cc1ccccc1)C(C)C (single isomer, unassigned)', 'IC50', '0.019 µM');

====

Listing of entries alongside the reported pIC50.
target: HIV protease (Human immunodeficiency virus type 1 group M subtype B, UniProt P04585); construct: HIV protease consists of 99 amino acids and is evidently split off by itself from the pol polyprotein; test: Inhibition of HIV protease (cleavage of H-Ser-Phe-Asn-Phe-Opr-Gln-Ile-OH, HPLC); type: biochemical; conditions: inhibitor concentration at which the cleavage rate is halved; pH 6, 2 hours; read-out: IC50
pIC50: −log10 of the molar value. Structures can show the parent of a compound that is named as a salt.
measured quantity: pIC50

INSERT INTO assay_data (molecule, assay_result) VALUES
  ('CC(C)C[C@H](N)C(=O)N[C@H](C(=O)N[C@@H](Cc1ccccc1)[C@H](O)[C@@H](O)[C@H](Cc1ccccc1)NC(=O)[C@@H](NC(=O)[C@@H](N)CC(C)C)C(C)C)C(C)C', 8.80),
  ('CC[C@H](C)[C@H](NC(=O)[C@@H](N)Cc1ccccc1)C(=O)N[C@@H](Cc1ccccc1)[C@H](O)[C@@H](O)[C@H](Cc1ccccc1)NC(=O)[C@@H](NC(=O)[C@@H](N)Cc1ccccc1)[C@@H](C)CC [Example 65, dihydrochloride]', 8.74),
  ('CC(C)[C@H](NC(=O)[C@H](Cc1cccc2ccccc12)CS(=O)(=O)C(C)(C)C)C(=O)N[C@@H](Cc1ccccc1)[C@H](O)[C@@H](O)[C@H](Cc1ccccc1)NC(=O)[C@@H](NC(=O)[C@H](Cc1cccc2ccccc12)CS(=O)(=O)C(C)(C)C)C(C)C', 9.10),
  ('CC(C)[C@H](NC(=O)OC(C)(C)C)C(=O)N[C@H](Cc1ccccc1)[C@@H](O)[C@H](O)[C@@H](Cc1ccccc1)NC(=O)[C@@H](NC(=O)OC(C)(C)C)C(C)C', 7.34),
  ('CC(C)[C@H](NC(=O)[C@@H](N)Cc1ccccc1)C(=O)N[C@@H](CC1CCCCC1)[C@H](O)[C@@H](O)[C@H](CC1CCCCC1)NC(=O)[C@@H](NC(=O)[C@@H](N)Cc1ccccc1)C(C)C [Example 43, dihydrochloride]', 9.00),
  ('CC(C)[C@H](NC(=O)[C@H](Cc1ccccc1)NC(=O)OC(C)(C)C)C(=O)N[C@@H](Cc1ccccc1)[C@H](O)[C@H](O)[C@H](Cc1ccccc1)NC(=O)[C@@H](NC(=O)[C@H](Cc1ccccc1)NC(=O)OC(C)(C)C)C(C)C', 7.74),
  ('CC(C)[C@H](NC(=O)[C@H](Cc1cccc2ccccc12)CS(=O)(=O)C(C)(C)C)C(=O)N[C@@H](Cc1ccc2c(c1)OCO2)[C@@H](O)[C@H](O)[C@H](Cc1ccc2c(c1)OCO2)NC(=O)[C@@H](NC(=O)[C@H](Cc1cccc2ccccc12)CS(=O)(=O)C(C)(C)C)C(C)C', 8.00),
  ('CC(C)[C@H](NC(=O)[C@H](CCCCNC(=O)OCc1ccccc1)NC(=O)OC(C)(C)C)C(=O)N[C@@H](Cc1ccccc1)[C@@H](O)[C@H](O)[C@H](Cc1ccccc1)NC(=O)[C@@H](NC(=O)[C@H](CCCCNC(=O)OCc1ccccc1)NC(=O)OC(C)(C)C)C(C)C', 7.55),
  ('CC(C)[C@H](NC(=O)[C@H](CCCCN)NC(=O)OC(C)(C)C)C(=O)N[C@@H](Cc1ccccc1)[C@@H](O)[C@H](O)[C@H](Cc1ccccc1)NC(=O)[C@@H](NC(=O)[C@H](CCCCN)NC(=O)OC(C)(C)C)C(C)C [Example 11, dihydrochloride]', 9.10),
  ('CSCC[C@H](N)C(=O)N[C@H](C(=O)N[C@@H](Cc1ccccc1)[C@H](O)[C@@H](O)[C@H](Cc1ccccc1)NC(=O)[C@@H](NC(=O)[C@@H](N)CCSC)C(C)C)C(C)C', 8.77),
  ('CC(C)[C@H](NC(=O)C(Cc1ccccc1)CS(=O)(=O)Cc1ccc(Cl)cc1)C(=O)N[C@@H](Cc1ccccc1)[C@@H](O)[C@H](O)[C@H](Cc1ccccc1)NC(=O)[C@@H](NC(=O)C(Cc1ccccc1)CS(=O)(=O)Cc1ccc(Cl)cc1)C(C)C (stereo partly shown)', 7.49),
  ('CC(C)[C@H](NC(=O)C(Cc1ccccc1)CS(=O)(=O)N1CCC(N)CC1)C(=O)N[C@@H](Cc1ccccc1)[C@@H](O)[C@H](O)[C@H](Cc1ccccc1)NC(=O)[C@@H](NC(=O)C(Cc1ccccc1)CS(=O)(=O)N1CCC(N)CC1)C(C)C (stereo partly shown)', 7.44),
  ('CC(C)[C@H](NC(=O)[C@H](Cc1c[nH]c2ccccc12)NC(=O)OCc1ccccc1)C(=O)N[C@@H](Cc1ccccc1)[C@@H](O)[C@H](O)[C@H](Cc1ccccc1)NC(=O)[C@@H](NC(=O)[C@H](Cc1c[nH]c2ccccc12)NC(=O)OCc1ccccc1)C(C)C', 7.72),
  ('CC(C)[C@H](NC(=O)[C@@H](N)Cc1ccccc1)C(=O)NCCCCNC(=O)[C@@H](NC(=O)[C@@H](N)Cc1ccccc1)C(C)C [Example 145, dihydrochloride]', 7.02),
  ('CCCCC[C@H](NC(=O)[C@@H](NC(=O)[C@H](Cc1ccccc1)NC(=O)OC(C)(C)C)C(C)C)[C@@H](O)[C@H](O)[C@H](CCCCC)NC(=O)[C@@H](NC(=O)[C@H](Cc1ccccc1)NC(=O)OC(C)(C)C)C(C)C', 7.02),
  ('CCCCC[C@H](NC(=O)[C@@H](NC(=O)[C@@H](N)Cc1ccccc1)C(C)C)[C@@H](O)[C@H](O)[C@H](CCCCC)NC(=O)[C@@H](NC(=O)[C@@H](N)Cc1ccccc1)C(C)C [Example 151, dihydrochloride]', 8.40);

The reported measurements were obtained from patent US5712417A.
